- TARGET_UNDER_TEST: T1, mouse CD276 protein (mouse, UniProt Q8VE98 29-316)
- T1 construct: whole, on cells; also called mCD276; CHO-S-mCD276
- T1 sequence (looked up): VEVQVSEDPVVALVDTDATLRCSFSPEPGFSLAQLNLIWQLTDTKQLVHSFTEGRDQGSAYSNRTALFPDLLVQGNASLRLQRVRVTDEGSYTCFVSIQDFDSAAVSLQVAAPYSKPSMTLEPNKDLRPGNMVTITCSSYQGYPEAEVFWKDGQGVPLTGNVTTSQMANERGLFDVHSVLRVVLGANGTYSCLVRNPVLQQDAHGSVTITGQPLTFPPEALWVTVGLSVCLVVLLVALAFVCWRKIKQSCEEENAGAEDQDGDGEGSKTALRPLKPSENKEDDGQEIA
- EXPERIMENT_DESCRIPTION: FACS on CHO-S-mCD276 cells
QUANTITY: FACS MFI
No unit in the answer, only the number.

Identify FACS MFI associated with the binder 8-B4-F5-E11 (antibody, V domains shown, mouse monoclonal antibody (hybridoma)) VH: QVQLQQPGAELVKPGASVKLSCKASGDTFTSYWMHWVKQRPGQGLEWIGMIHPDSGTRNYNEKVMSKATLNVDKSSSTAYLHLSSLTSEDSAVYYCSRSYGSRLAWFAYWGQGTLVTVSA VL: QAVVTQESALTTSPGETVTLTCRSSTGAVTTSNFANWVQEKPDHLFTGLIGGTNNRAPGVPARFSGSLIGDKAALTITGAQTEDEAVYFCALWYTNHFIFGSGTKVTVL
7370

Provide FACS MFI value for the following binder: 24-C10-F9-G7 (antibody, V domains shown, mouse monoclonal antibody (hybridoma)) VH: EVQLQESGPELVRPGVSVKISCKGSGYTFTDHTMHWVKESHAQSLEWIGVISTYYGNTNYNQNFKGKATLTVDKSSSTAYMELAGLTSEDSAIYYCARASYGSGYGPYYWYFDVWGAGTTVTVSS VL: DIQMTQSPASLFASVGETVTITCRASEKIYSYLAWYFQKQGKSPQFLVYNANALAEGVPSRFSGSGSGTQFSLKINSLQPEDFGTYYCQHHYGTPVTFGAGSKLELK
1180

Could you please provide reported FACS MFI for 27-F8-E10-E11 (antibody, V domains shown, mouse monoclonal antibody (hybridoma)) VH: EVQLQQSGPELVKPGASVKISCKTSGYTFTEYAMHWVKQSHGKILEWIGGINPNIGGTTYNQKFKDKATLTVDKSSSTASMELRSLTSEDSAVYYCARFLVPSTEGFTYWGQGTLVTVSA VL: QIVLTQSPAIMSASPGEKVTMTCSASSSVSYMHWYQQKSGTSPKRWIYDTSRVASGVPARFSGSGSGTSYSLTISSMEAEDAATYYCQQWSSNPLTFGAGTKLELK ? Thanks!
1350
